# System: Vero E6 infected with SARS-CoV-2
# assay-method-text: inhibition of SARS-CoV-2 cytopathic effect; higher = more antiviral protection, active = above 15
# run-conditions: 1 nM; 48 h
Reported inhibition of SARS-CoV-2 cytopathic effect by item:
Response body: numeric value in %, unit text excluded.

Reference set, count: 5
[
  {
    "molecule": "CC(C)=CCC/C(C)=C/CC/C(C)=C/CC[C@]1(C)CCc2cc(O)cc(C)c2O1",
    "measured": 0.39
  },
  {
    "molecule": "CO/N=C(\\C(=O)N[C@@H]1C(=O)N2C(C(=O)O)=C(CSC(=O)c3ccco3)CS[C@H]12)c1csc(N)n1",
    "measured": -0.19
  },
  {
    "molecule": "CN1CCN(c2ccc(Nc3ncc4cc(C#N)c(=O)n(C5CCCC5)c4n3)cc2)CC1",
    "measured": 1.39
  },
  {
    "molecule": "CC(C)(C)[C@]1(O)CC2OC(=O)CC23C(=O)OC2OC(=O)[C@H](O)C231 (stereo partly specified) [bilobalide]",
    "measured": -0.27
  },
  {
    "molecule": "O=C(NCc1ccc2c(c1)OCO2)c1c(Cl)cccc1Cl",
    "measured": -2.37
  }
]

Attention now shifts to the item below.
Problem: Hello, please tell me recorded inhibition of SARS-CoV-2 cytopathic effect for this one: O=c1n(CC2CO2)c(=O)n(CC2CO2)c(=O)n1CC1CO1 (stereo unspecified)
Solution: -1.74

###

# System: Vero E6 infected with SARS-CoV-2
# assay-method-text: inhibition of SARS-CoV-2 cytopathic effect; higher = more antiviral protection, active = above 15
# run-conditions: 100 nM; 48 h
Reported inhibition of SARS-CoV-2 cytopathic effect by item:
Response body: numeric value in %, unit text excluded.

Reference set, count: 2
[
  {
    "compound": "CCOC(=O)OC(C)OC1=C(C(=O)Nc2ccccn2)N(C)S(=O)(=O)c2ccccc21 (stereo not drawn)",
    "measured-target": "Vero E6 infected with SARS-CoV-2",
    "units-of-measure": "%",
    "measured": 1.16
  },
  {
    "compound": "CCc1cccc(CC)c1NC(=O)CN(CC(=O)O)CC(=O)O",
    "measured-target": "Vero E6 infected with SARS-CoV-2",
    "units-of-measure": "%",
    "measured": 0.25
  }
]

Attention now shifts to the item below.
Problem: Hello, please tell me recorded inhibition of SARS-CoV-2 cytopathic effect for this one: CC(C)[N+](C)(CCOC(=O)C1c2ccccc2Oc2ccccc21)C(C)C
Solution: -0.81

###

# System: Vero E6 infected with SARS-CoV-2
# assay-method-text: inhibition of SARS-CoV-2 cytopathic effect; higher = more antiviral protection, active = above 15
# run-conditions: 8.33 nM; 48 h
readout: inhibition of SARS-CoV-2 cytopathic effect (%)
Response body: numeric value in %, unit text excluded.

Reference set, count: 3
[
  {
    "compound": "COc1cc(Nc2ncc(F)c(Nc3ccc4c(n3)NC(=O)C(C)(C)O4)n2)cc(OC)c1OC",
    "measured": -0.43
  },
  {
    "compound": "NCCS [cysteamine]",
    "measured": 0.1
  },
  {
    "compound": "CSc1nc(-c2ccc(F)cc2)c(-c2ccnc(N[C@@H](C)c3ccccc3)c2)[nH]1",
    "measured": -2.6
  }
]

Problem: Hello, please tell me recorded inhibition of SARS-CoV-2 cytopathic effect for this one: CC(C)(C)C(=O)OCOC(=O)[C@@H]1N2C(=O)[C@@H](NC(=O)[C@H](N)c3ccccc3)[C@H]2SC1(C)C [pivampicillin]
Solution: 3.24

Problem: Hello, please tell me recorded inhibition of SARS-CoV-2 cytopathic effect for this one: Cc1ccc(C(=O)Cn2c3c(sc2=N)CCCC3)cc1 [pifithrin-alpha]
Solution: -0.83

Problem: Hello, please tell me recorded inhibition of SARS-CoV-2 cytopathic effect for this one: CN1CC(=O)NC1=N [creatinine]
Solution: 1.05

Problem: Hello, please tell me recorded inhibition of SARS-CoV-2 cytopathic effect for this one: O=S(=O)(c1cccc2c(O)nccc12)N1CCCNCC1 [hydroxyfasudil]
Solution: -1.29

###

Reported morphology score by item:
# System: Vero E6 infected with SARS-CoV-2
# assay-method-text: morphology score (similarity to uninfected cells); higher = more like uninfected cells
# run-conditions: 24 h

Reference set, count: 5
[
  {
    "compound": "c1cc2c3c(c1)c1c(n3CCNC2)CCCC1 (10 µM)",
    "measured-target": "Vero E6 infected with SARS-CoV-2",
    "morphology score": -0.0322
  },
  {
    "compound": "CC(C)NC(=N)NC(=N)Nc1ccc(Cl)cc1 [proguanil] (10 µM)",
    "measured-target": "Vero E6 infected with SARS-CoV-2",
    "morphology score": -0.0553
  },
  {
    "compound": "COC(=O)[C@@]12OC[C@]34[C@H]([C@@H](O)[C@@H]1O)[C@@]1(C)CC(=O)C(O)=C(C)[C@@H]1C[C@H]3OC(=O)[C@H](OC(=O)/C=C(\\C)C(C)C)[C@@H]24 [bruceantin] (0.833333 µM)",
    "measured-target": "Vero E6 infected with SARS-CoV-2",
    "morphology score": -0.0265
  },
  {
    "compound": "Cn1ncnc1COc1nn2c(-c3cc(F)ccc3F)nnc2cc1C(C)(C)C (10 µM)",
    "measured-target": "Vero E6 infected with SARS-CoV-2",
    "morphology score": 0.166
  },
  {
    "compound": "Nc1ccc(S(N)(=O)=O)cc1 [sulfanilamide] (10 µM)",
    "measured-target": "Vero E6 infected with SARS-CoV-2",
    "morphology score": 0.0892
  }
]

Problem: Hello, please tell me recorded morphology score for this one: CC(=O)[C@]1(N)Cc2c(O)c3c(c(O)c2[C@@H](O[C@H]2C[C@H](O)[C@H](O)CO2)C1)C(=O)c1ccccc1C3=O [amrubicin] (0.833333 µM)
Solution: 0.065

Problem: Hello, please tell me recorded morphology score for this one: COCCOC(=O)C1=C(C)NC(C)=C(C(=O)OC/C=C/c2ccccc2)C1c1cccc([N+](=O)[O-])c1 (stereo not given) [cilnidipine] (10 µM)
Solution: 0.171

Problem: Hello, please tell me recorded morphology score for this one: CC(C)(C#N)c1cc(Cn2cncn2)cc(C(C)(C)C#N)c1 [anastrozole] (10 µM)
Solution: -0.0389

Problem: Hello, please tell me recorded morphology score for this one: C=C[C@H]1CN2CC[C@H]1C[C@@H]2[C@@H](O)c1ccnc2ccc(OC)cc12 [quinidine] (10 µM)
Solution: 0.155

Problem: Hello, please tell me recorded morphology score for this one: CC[N+](CC)(CC)CCOc1cccc(OCC[N+](CC)(CC)CC)c1OCC[N+](CC)(CC)CC [gallamine-triethiodide] (10 µM)
Solution: -0.128

###

# System: Vero E6 infected with SARS-CoV-2
# assay-method-text: inhibition of SARS-CoV-2 cytopathic effect; higher = more antiviral protection, active = above 15
# run-conditions: 100 nM; 48 h
readout: inhibition of SARS-CoV-2 cytopathic effect (%)
Response body: numeric value in %, unit text excluded.

Reference set, count: 7
[
  {
    "molecule": "O=C(O)c1c2ccccc2cc2ccccc12",
    "measured": 0.63
  },
  {
    "molecule": "CC1=C(/C=C/C(C)=C/C=C/C(C)=C/C=C/C=C(C)/C=C/C=C(C)/C=C/C2=C(C)C(=O)[C@@H](O)CC2(C)C)C(C)(C)C[C@H](O)C1=O",
    "measured": -9.1
  },
  {
    "molecule": "CN(C)C(=O)C(=O)c1cn(C)c2cc(Cl)c(C(=O)N3CCC(Cc4ccc(F)cc4)CC3)cc12",
    "measured": -2.84
  },
  {
    "molecule": "Nc1cccc(CNC(=O)c2ccc(Oc3ccc(OCc4cccc(F)c4)cc3)nc2)c1",
    "measured": 0.75
  },
  {
    "molecule": "CC1(C)CC[C@]2(NC(=O)C(C)(F)F)CC[C@]3(C)[C@H](C(=O)C=C4[C@@]5(C)C=C(C#N)C(=O)C(C)(C)[C@@H]5CC[C@]43C)[C@@H]2C1 [Omaveloxolone (RTA-408)]",
    "measured": 3.8
  },
  {
    "molecule": "CC(=O)c1ccc(S(=O)(=O)NC(=O)NC2CCCCC2)cc1 [acetohexamide]",
    "measured": -0.58
  },
  {
    "molecule": "CN1CCCC(n2nc(Cc3ccc(Cl)cc3)c3ccccc3c2=O)CC1 (stereo not drawn)",
    "measured": -3.43
  }
]

Problem: Hello, please tell me recorded inhibition of SARS-CoV-2 cytopathic effect for this one: Cn1cc(-c2ccc3nnc(C(F)(F)c4ccc5ncccc5c4)n3n2)cn1
Solution: 4.23

// data source = the supplement of paper PMC13380429
